# assayed system: AEA-DA lipid probe targets in Neuro2a cells (Mus musculus)
# Sequence (P70699 70-953): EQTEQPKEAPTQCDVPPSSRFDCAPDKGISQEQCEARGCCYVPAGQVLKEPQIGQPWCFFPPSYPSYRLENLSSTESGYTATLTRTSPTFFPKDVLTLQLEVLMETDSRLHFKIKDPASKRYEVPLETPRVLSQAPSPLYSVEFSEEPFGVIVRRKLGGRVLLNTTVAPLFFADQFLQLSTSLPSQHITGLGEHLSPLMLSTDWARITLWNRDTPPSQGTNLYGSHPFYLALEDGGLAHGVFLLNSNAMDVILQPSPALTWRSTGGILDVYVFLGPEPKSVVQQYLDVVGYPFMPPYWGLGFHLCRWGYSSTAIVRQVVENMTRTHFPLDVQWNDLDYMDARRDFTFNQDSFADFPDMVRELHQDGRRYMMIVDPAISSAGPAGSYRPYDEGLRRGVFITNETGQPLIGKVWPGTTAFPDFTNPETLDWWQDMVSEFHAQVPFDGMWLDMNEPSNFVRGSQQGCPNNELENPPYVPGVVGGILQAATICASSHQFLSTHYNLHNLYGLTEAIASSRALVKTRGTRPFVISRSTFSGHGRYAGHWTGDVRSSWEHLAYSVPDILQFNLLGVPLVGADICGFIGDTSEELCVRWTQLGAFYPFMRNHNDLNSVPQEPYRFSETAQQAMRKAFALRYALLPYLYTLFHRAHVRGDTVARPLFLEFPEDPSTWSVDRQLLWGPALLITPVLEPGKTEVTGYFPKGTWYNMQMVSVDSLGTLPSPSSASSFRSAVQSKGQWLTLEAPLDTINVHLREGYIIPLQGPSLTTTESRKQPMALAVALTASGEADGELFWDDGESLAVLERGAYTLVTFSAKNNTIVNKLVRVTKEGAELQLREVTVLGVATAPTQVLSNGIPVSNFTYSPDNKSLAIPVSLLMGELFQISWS
# experimental parameters: competitor 25 μM
Assignment: determine reported SILAC ratio Gaa for the given molecules.

Some molecules with recorded SILAC ratio Gaa:
CN1CCN(C(=O)c2[nH]c3ccc([N+](=O)[O-])cc3c2-c2ccccc2)CC1 [MJN228] :: 1.2
CN1CCN(C(=O)c2c(-c3ccccc3)c3cc([N+](=O)[O-])ccc3n2C)CC1 [KML110] :: 1.6
O=C(/C=C/c1cccnc1)NCCCCC1CCN(C(=O)c2ccccc2)CC1 [FK-866, reference compound] :: 1.1

Now examine the next entry.
q: Name the recorded SILAC ratio Gaa for C=CCN(C)CCCCCCOc1ccc(C(=O)c2ccc(Br)cc2)c(F)c1 [Ro 48-8071, reference compound] .
a: 0.5
